Each recorded value in this set is attributed to PubChem BioAssay AID1159580.

# Assay Protocol: chemical genetic growth profiling, strain panel (AID 1159580);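 note: tested at 20 µM; growth read once vehicle control cultures reached saturation at 30 °C; 1 = growth at the plate median or of vehicle wells; lower values mean less growth of the strain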
# Test Conditions: S. cerevisiae deletion strains, growth OD, locus YJL092W, strain hpr5, hits give low values
The whole screen tested about 5,500 compounds, of which about 2,000 (36%) were called active. Not shown: some 18% with an inconclusive outcome. This is one part of the list.
Property: normalized growth
Please reply with the value in numeric form only.

Answered cases to consult:
{"Molecule": "NC(N)=NOCC[C@H](N)C(=O)O", "Observed Measurement": 1.01}
{"Molecule": "Cn1cc[nH]c1=S", "Observed Measurement": 1}
{"Molecule": "CC(=O)O[C@@](C)(CCC=C(C)C)C1CC=C(C)CC1 (stereo partly specified)", "Observed Measurement": 0.988}
{"Molecule": "CC(C)=CCc1c(O)cc2oc(C)cc(=O)c2c1O", "Observed Measurement": 0.975}
{"Molecule": "COC(=O)C1=COC(OC2OC(CO)C(O)C(O)C2O)C2C(C)CC(=O)C12O (stereo unspecified)", "Observed Measurement": 0.983}

Kindly review the next molecule as well.
Prompt: Dear colleague, I am looking for the recorded normalized growth of the following molecule: CCCCCC(C)N (stereo unspecified)
Response: 1.02

====

# Assay Protocol: chemical genetic growth profiling, strain panel (AID 1159580);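 note: tested at 20 µM; growth read once vehicle control cultures reached saturation at 30 °C; 1 = growth at the plate median or of vehicle wells; lower values mean less growth of the strain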
# Test Conditions: S. cerevisiae deletion strains, growth OD, locus YOR290C, strain snf2, hits give low values
The campaign covered roughly 5,500 compounds. About 2,000 (36%) were called active. Roughly 18% stayed inconclusive and do not appear here. Some of the results follow.
So basically, if normalized growth comes in under 1 it's Yes, and if it's 1 or more it's No.

{"Compound": "C[C@@H]1O[C@@H](O[C@H]2[C@@H](Oc3cc(O)c4c(c3)O[C@H](c3ccc(O)cc3)CC4=O)O[C@H](CO)[C@@H](O)[C@@H]2O)[C@H](O)[C@H](O)[C@H]1O", "Label Class": "Yes"}
{"Compound": "CCCCCCCCCCCCCCCCOP(=O)([O-])OCC[N+](C)(C)C", "Label Class": "Yes"}
{"Compound": "COc1ccc2cc1Oc1ccc(cc1)C[C@H]1c3c(cc4c(c3Oc3cc5c(cc3OC)CCN(C)[C@@H]5C2)OCO4)CCN1C", "Label Class": "No"}
{"Compound": "Cc1cc(=O)c2c(O)cc(O)c(C)c2o1", "Label Class": "Yes"}
{"Compound": "COc1ccc(C2CC(=O)c3ccc(OC)cc3O2)cc1 (stereo not drawn)", "Label Class": "Yes"}
{"Compound": "COc1ccc(-c2cc(=O)c3c(O)cc(OC)c(OC)c3o2)c(OC)c1", "Label Class": "Yes"}
{"Compound": "Cc1cc(=O)c2c(O)c(C)c(O)cc2o1", "Label Class": "No"}

Now for another entry.
Prompt: Bench note: check whether COc1c(O)cc2oc3cc(O)c(CC=C(C)C)c(O)c3c(=O)c2c1CC=C(C)C shows normalized growth below 1
Response: Yes

====

# Assay Protocol: chemical genetic growth profiling, strain panel (AID 1159580);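 note: tested at 20 µM; growth read once vehicle control cultures reached saturation at 30 °C; 1 = growth at the plate median or of vehicle wells; lower values mean less growth of the strain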
# Test Conditions: S. cerevisiae deletion strains, growth OD, locus YDL035C, strain GPR1, hits give low values
Among all 5,500 compounds or so, about 2,000 (36%) were called active. Roughly 18% stayed inconclusive and do not appear here. This is one part of the list.
Property: normalized growth
Just the number, please, no unit after it.

Some molecules with recorded normalized growth:
{"Molecule": "O=C1C[C@@H](c2ccc(O)cc2)Oc2cc(O)cc(O)c21", "normalized growth": 1.01}
{"Molecule": "CCC1(c2ccc(N)cc2)CCC(=O)NC1=O (configuration not stated)", "normalized growth": 1.04}
{"Molecule": "COc1ccc(-c2coc3c(OC)c(OC)ccc3c2=O)cc1", "normalized growth": 0.963}
{"Molecule": "CCCCOc1ccc(OCCCN2CCOCC2)cc1", "normalized growth": 0.855}

Prompt: # get_value(readout='normalized growth', item= COC(=O)[C@H]1[C@H]2C[C@H]3c4[nH]c5ccccc5c4CCN3C[C@H]2CC[C@@H]1O )
Response: 1.01

Prompt: Report normalized growth for CCc1nc(N)nc(N)c1-c1ccc(Cl)cc1 please.
Response: 0.995

Prompt: Param item = CCC1(C)CC(=O)NC1=O (configuration not stated) ; retrieve measured normalized growth.
Response: 0.999

Prompt: What value of normalized growth has been recorded for this entry: O=c1ccc2ccccc2o1
Response: 1.01

Prompt: Which normalized growth is listed for CCC(C(=O)O)c1ccccc1 (configuration not stated) ?
Response: 1.03

Prompt: GET /values?readout=normalized growth&item= Cc1cc(=O)c2c(O)cc(O)c(C)c2o1
Response: 1.02

Prompt: Requested field: normalized growth. Item: COC(=O)[C@@H]1C(O)CC[C@H]2CN3CCc4c([nH]c5ccccc45)[C@@H]3C[C@@H]21 (some centres not stated)
Response: 0.994

Prompt: Reported normalized growth for COc1ccc2c(c1)C1(C)CCC(=O)CC1CC2 (configuration not stated) : what is it?
Response: 1.01

Prompt: For the molecule shown here, CC(=O)O[C@]1(C(C)=O)CCC2C3C=C(C)C4=CC(=O)CCC4(C)C3CCC21C (some centres not stated) , give the reported normalized growth.
Response: 0.908

Prompt: Need normalized growth, item Cc1ccc2c(c1)CC[C@H]1CC(=O)CC[C@]21C
Response: 0.973

Prompt: Sample COc1cc(OC)c2c(c1)OC(c1ccccc1)CC2=O (configuration not stated) — what was its normalized growth?
Response: 0.988

Prompt: Requested field: normalized growth. Item: COc1cc(OC)c2c(c1)OC(c1ccc(OC)c(OC)c1)C(O)C2 (configuration not stated)
Response: 1.08

Prompt: Query: normalized growth; subject: CC(=O)O[C@]1(C(C)=O)CCC2C3C[C@H](C)C4=CC(=O)CC[C@]4(C)C3CC[C@@]21C (some centres not stated)
Response: 1.01

Prompt: Which normalized growth value is on record for O=C1C[C@@H](c2ccccc2)Oc2cc(O)cc(O)c21 ?
Response: 0.884

Prompt: Return reported normalized growth; argument: Cc1c(O)cc(O)c2c(=O)c(-c3ccc(O)cc3)coc12
Response: 1.01
